Test system: ACHN renal
Assay: NCI tumour cell line growth inhibition, 48 h; in the data active = GI50 below about 0.43 µM; inactive = the rest
Just give me one of these, please: true = active, false = inactive

- compound: "CN(CCCNC(=O)CCOCCOCCOCCNC(=O)Cc1ccc2ccc3cccc4ccc1c2c34)CCCNc1cc(-c2ccc3ccccc3c2)nc2ccccc12"
  discrete label: "false"
- compound: "COc1cc2cc(Oc3ccc(NC(=O)Nc4ccc(Cl)c(Cl)c4)cc3)c(C)nc2cc1OC"
  discrete label: "false"
- compound: "O=C1NC(=NCCCc2ccccc2)S/C1=C\\c1ccc2ncccc2c1"
  discrete label: "false"

Problem: Dear all, I need the recorded test outcome for "COc1cc2nc3cc([N+](=O)[O-])ccc3c(NCCNCC(C)(C)O)c2cc1OC" , thank you.
Result: false

Problem: Check the results log: what was the call for "CCCCCCC[CH2][Sn]1([CH2]CCCCCCC)[O]C(=O)c2cccnc2[O]1" ?
Result: false

Problem: Hey, what did the test say about O=[N+]([O-])c1cccc(C2CC(c3ccccc3)=Nc3ccccc3S2)c1 (stereo unspecified) ?
Result: false

Problem: Per the assay record, what outcome was assigned to "COc1ccc(N(C)c2nc(N)nc3sc4c(c23)CCCC4)cc1" ?
Result: true

Problem: GET /call?item= "O=C(Nc1nc2ccccc2s1)Nc1ccc([N+](=O)[O-])cc1Cl" returns the recorded outcome of this test.
Result: false

Problem: Please indicate how the test categorized "COc1cc(-c2nn(-c3cccc(NC(=O)c4ccc(Cl)c(C(F)(F)F)c4)c3)cc2-c2ccncc2)ccc1Cl" .
Result: false

Problem: Fill in: this test's call for "COc1cc2c3c(n(C)c(=O)c2cc1OC)-c1ccc(C#N)cc1C3=O" is ___
Result: false

Problem: Called result for "O=C(CC(Cl)=C(Cl)Cl)c1cccc(Cl)c1Cl"
Result: false

Problem: State the result this test recorded for CSc1ccc2c(c1)C(N1CCN(C)CC1)Cc1ccccc1S2 (stereo unspecified) .
Result: false

Problem: GET /call?item= CN(Cc1cnc2nc(N)nc(N)c2n1)c1ccc(C(=O)NC(CCC(=O)O)C(=O)O)cc1Br (stereo unspecified) returns the recorded outcome of this test.
Result: true

Problem: What is the recorded call for this compound in the test? "CN1CCN(CCCOc2cccc3nc(Nc4ccc(Cl)c(C(F)(F)F)c4)ccc23)CC1"
Result: false

Problem: Hi team, can someone confirm the assay call for "COc1cc2c(=O)[nH]c3cc([N+](=O)[O-])ccc3c2cc1[N+](=O)[O-]" ?
Result: false

Problem: Which outcome did this test record for the compound O=C(CN1C(=O)S/C(=C\C(Cl)=C\c2ccccc2)C1=O)NC1C=CS(=O)(=O)C1 (stereo unspecified) ?
Result: false
